B1: SNAP91 (parent)
chain: FAQPMMRPPFGAAAVPGTQLSPSP

Variants of: B1
Experiment: protein stability index of a GFP-peptide fusion (GPS, HEK-293T) (PSI 1-6); higher = more stable;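 further: lentivirally expressed fusions sorted by FACS into six bins by GFP to DsRed ratio, PSI derived from sequencing read proportions per bin multiplied by bin number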
Settings: c terminus: a fixed tail appended
Threshold check on protein stability index: at or above 3 gives Fulfilled, strictly below gives Not fulfilled.

>>> group_label("FAQPMMRPPFGAAAVPGTDLSPSP [Q19D]")
"Fulfilled"
>>> group_label("FAQPMMRPPFGAAAVPGTQLSPSW [P24W]")
"Not fulfilled"
>>> group_label("FAQYMMRPPFGAAAVPGTQLSPSP [P4Y]")
"Not fulfilled"
>>> group_label("FAQPMMRPPFGCAAVPGTQLSPSP [A12C]")
"Not fulfilled"
>>> group_label("FAQDMMRPPFGAAAVPGTQLSPSP [P4D]")
"Not fulfilled"
>>> group_label("FAQPMMRPPFGYAAVPGTQLSPSP [A12Y]")
"Not fulfilled"
>>> group_label("FAQPMMRPPFGAAAVPGTQLSPVP [S23V]")
"Fulfilled"
>>> group_label("FAQPMMLPPFGAAAVPGTQLSPSP [R7L]")
"Not fulfilled"
>>> group_label("FAQPMMRPPFGDAAVPGTQLSPSP [A12D]")
"Fulfilled"
>>> group_label("FAQPMMRPPFGIAAVPGTQLSPSP [A12I]")
"Not fulfilled"
